procedure_details: Components of the Cytosolic LPS Sensing Pathway: Gene Identification via Genome-wide siRNA Screen
particulars: RAW264.7 macrophages, IL-1a HTRF, actives lie on both sides, screened at 100 nM (by protocol), cells primed 5 h with Pam3CSK4 first
The campaign covered roughly 53,000 sequences. About 3,700 (7%) were called active. This excerpt belongs to a sample that is enriched for actives.
Assign a class from recorded z-score; defined classes: low band: < -0.5; middle band: ≥ -0.5 and < 0.4; high band: ≥ 0.4

• GGAUUCUGAACCUUACAGATT against Hoxd9 = high band
• GGCCUCUCAAAAUCUUCCUTT against Galnt11 = low band
• GCUAGAGUAGCUUUGGGCATT against Glra3 = high band
• GGCCAGACAUGUUGAAGAATT against Ssna1 = low band
• GGUCCACCUCAACAAGCUATT against Zfp536 = high band
• GCACUCAUUGCCAGGGUCATT against Pycard = low band
• CGAGUUAGUUUUUCUGGGCTT against Tctex1d4 = high band
• GGAAGAAUCCACUUUGAACTT against Chil4 = middle band
• GGAGAAAUCCCUUCACGGUTT against Mas1 = high band
• GGAUGAAUGGAGAACUGAATT against Afap1l1 = low band
• GGUAGGAUGAGUUGAAGAGTT against AF366264 = middle band
• CGACCUGCUCUCAUAGCUUTT against Sycn = low band
• GGAUGCUCAUGGACCUUUGTT against Olfr1122 = high band
• CGGCUCUUCAAUAGAGCCUTT against Olfr123 = middle band
• CCAAGUAAUUCCUACUACUTT against Olfr1100 = middle band
• GGUCAUUGUCAAAGUCAAGTT against Nutm1 = high band
• CCUAGUUUGGUGAUGAUGUTT against Atg10 = middle band
• CAAGAAGGUCAUGUUAUUGTT against Olfr106-ps = high band
• CAUUGGUAUUGCCAAGGCATT against Olfr1330 = middle band
• GGACAUUGACACUUCCCUGTT against P2rx5 = low band
• GCUAAACUUAAGUCCAUCATT against Supt7l = low band
• GACCAAAGCACUGACUAUGTT against Lyz2 = middle band
• GGCUUGGAUUUUGAAAUACTT against Srcin1 = low band
• GGAUAUUGAUGUUUCAAGUTT against Neo1 = middle band

* * *

procedure_details: Components of the Cytosolic LPS Sensing Pathway: Gene Identification via Genome-wide siRNA Screen
particulars: RAW264.7 macrophages, IL-1a HTRF, actives lie on both sides, screened at 100 nM (by protocol), cells primed 5 h with Pam3CSK4 first
The campaign covered roughly 53,000 sequences. About 3,700 (7%) were called active. The sample as a whole holds a higher share of actives than the screen did.
Dear colleague, classification is by z-score, with ranges listed here: low = under 0.7, middle = from 0.7 up to 2, high = 2 and over

• GGUACUUUUACUCCCGAAGTT against Lgals3bp = low
• GCAUCCUCUCACUCUCAAUTT against Grin2a = high
• GGUCUCGAAUGUAUGGUGCTT against Bicc1 = middle
• GGCCAUCAUAUCACCAUUUTT against Rcsd1 = middle
• GGGUGUGAGGGAUUUCAUCTT against Ndufa2 = high
• GGAGUUUACUGAGUUUUAGTT against Prkaca = high
• GGAAAAAAAAAAGCAGUGATT against Phactr4 = low
• GGAGGAUAAGGAUACAGUATT against Cspg5 = high
• GGAUGAAGACAGUCAAAUGTT against Lypd3 = low
• CCAGUCCUUGAAAAGAGCUTT against Olfr128 = low
• GGAACACUACCGUUUUGGGTT against Ehd2 = high
• GGUUAUGAGGCUUAAUAAATT against Atxn7l1 = middle
